# Test description: yeast display, Sf9 membrane polyspecificity reagent, FACS + sequencing; frameworks hold sequencing errors

| Sequence entry | polyreactivity (PSR sort gate) |
| --- | --- |
| QVQLVESGGGLVQAGGSLRLSCAASGITFAPYAMGWYRQAPGKERELVAVISSGGSTKYADSVKGRFTISRDNAKNTVYLQMNSLKPEDTAVYYCAASAPRGYGYKYYYWGQGTQVTVSS | high polyreactivity |
| QVQLVESGGGLVQAGGSLRLSCAASGRILYGYAMGWYRQAPGKERELVAGISWRGGSTYYADSVKGRFTISRDNAKNTVYLQMNSLKPEDTAVYYCAARGWPSQVPVRVFRYDYWGQGTQVTVSS | high polyreactivity |
| QVQLVESGGGLVQAGGSLRLSCAASGFIFGYYAMGWYRHAPGKERELVAAISYSGGSTYYADSVKGRFTISRDNAKNTVYLQMYSLKPEDTAVYYCAKYGQSNYDWGQGTQVTLSS | high polyreactivity |

The measured values listed here are drawn from the nanobody polyreactivity screen of Harvey et al. (2022).
